# EXPERIMENTAL_DETAILS: In vivo bioconversion of CBT succinate in 50% PEG300 formulation, IV, mouse plasma by LC-MS/MS
# Parameters: species or system ICR male mice
# CONDITION: male, ICR, mouse, plasma, iv, 15 mg/kg, mouse plasma; CBT succinate in 50% PEG300 formulation, 15 mg/kg IV; time 0.083 h; read-out: CBT succinate concentration (individual mouse)

[
  {
    "COMPOUND": "CO[C@H]1C(=O)[C@]2(C)[C@@H](OC)C[C@H]3OC[C@@]3(OC(C)=O)[C@H]2[C@H](OC(=O)c2ccccc2)[C@]2(O)C[C@H](OC(=O)[C@H](OC(=O)CCC(=O)O)[C@@H](NC(=O)OC(C)(C)C)c3ccccc3)C(C)=C1C2(C)C [CBT succinate, cabazitaxel succinate]",
    "concentration at 0.083 h / ng/mL": 5980
  }
]

* * *

# EXPERIMENTAL_DETAILS: In vivo bioconversion of CBT succinate in 50% PEG300 formulation, IV, mouse plasma by LC-MS/MS
# Set-up: species or system ICR male mice
# CONDITION: male, ICR; mouse plasma; CBT succinate in 50% PEG300 formulation, 15 mg/kg IV; read-out: AUCInf of CBT Succinate

[
  {
    "MOLECULE": "CO[C@H]1C(=O)[C@]2(C)[C@@H](OC)C[C@H]3OC[C@@]3(OC(C)=O)[C@H]2[C@H](OC(=O)c2ccccc2)[C@]2(O)C[C@H](OC(=O)[C@H](OC(=O)CCC(=O)O)[C@@H](NC(=O)OC(C)(C)C)c3ccccc3)C(C)=C1C2(C)C [CBT succinate, cabazitaxel succinate]",
    "AUC(0-inf) / ng·h/mL": 1770
  }
]

* * *

# EXPERIMENTAL_DETAILS: In vivo bioconversion of CBT succinate in 50% PEG300 formulation, IV, mouse plasma by LC-MS/MS
# Set-up: species or system ICR male mice
# CONDITION: male, ICR, mouse, plasma, iv, 15 mg/kg, mouse plasma; CBT succinate in 50% PEG300 formulation, 15 mg/kg IV; time 0.167 h; read-out: CBT succinate concentration (individual mouse)
MEASURE_NAME: concentration at 0.167 h

[
  {
    "COMPOUND": "CO[C@H]1C(=O)[C@]2(C)[C@@H](OC)C[C@H]3OC[C@@]3(OC(C)=O)[C@H]2[C@H](OC(=O)c2ccccc2)[C@]2(O)C[C@H](OC(=O)[C@H](OC(=O)CCC(=O)O)[C@@H](NC(=O)OC(C)(C)C)c3ccccc3)C(C)=C1C2(C)C [CBT succinate, cabazitaxel succinate]",
    "MEASURE_NAME": "concentration at 0.167 h",
    "VAL": "3100 ng/mL"
  }
]

* * *

# EXPERIMENTAL_DETAILS: In vivo bioconversion of CBT succinate in 50% PEG300 formulation, IV, mouse plasma by LC-MS/MS
# Set-up: species or system ICR male mice
# CONDITION: male, ICR; mouse plasma; CBT succinate in 50% PEG300 formulation, 15 mg/kg IV; read-out: AUClast of CBT Succinate
MEASURE_NAME: AUC(0-t)

[
  {
    "MOLECULE": "CO[C@H]1C(=O)[C@]2(C)[C@@H](OC)C[C@H]3OC[C@@]3(OC(C)=O)[C@H]2[C@H](OC(=O)c2ccccc2)[C@]2(O)C[C@H](OC(=O)[C@H](OC(=O)CCC(=O)O)[C@@H](NC(=O)OC(C)(C)C)c3ccccc3)C(C)=C1C2(C)C [CBT succinate, cabazitaxel succinate]",
    "MEASURE_NAME": "AUC(0-t)",
    "VAL": "1770 ng·h/mL"
  }
]

* * *

# EXPERIMENTAL_DETAILS: In vivo bioconversion of CBT succinate in 50% PEG300 formulation, IV, mouse plasma by LC-MS/MS
# Parameters: species or system ICR male mice
# CONDITION: male, ICR, mouse, plasma, iv, 15 mg/kg, mouse plasma; CBT succinate in 50% PEG300 formulation, 15 mg/kg IV; time 2 h; read-out: CBT succinate concentration, Mean
# Description: The bioanalysis results are tabulated as Tables 1 to 3 below. The values of mean and standard deviation (SD) are calculated. BLOQ means “below the limit of quantification”, and N/A means “not available”. Normal saline used herein is 0.90% sodium chloride aqueous solution. C0: Initial concentration; • 3. […] AUC/D: AUC divided by dose; • 6.

[
  {
    "MOLECULE": "CO[C@H]1C(=O)[C@]2(C)[C@@H](OC)C[C@H]3OC[C@@]3(OC(C)=O)[C@H]2[C@H](OC(=O)c2ccccc2)[C@]2(O)C[C@H](OC(=O)[C@H](OC(=O)CCC(=O)O)[C@@H](NC(=O)OC(C)(C)C)c3ccccc3)C(C)=C1C2(C)C [CBT succinate, cabazitaxel succinate]",
    "concentration at 2 h": "15 ng/mL"
  }
]

* * *

# EXPERIMENTAL_DETAILS: In vivo bioconversion of CBT succinate in 50% PEG300 formulation, IV, mouse plasma by LC-MS/MS
# Set-up: species or system ICR male mice
# CONDITION: male, ICR, mouse, plasma, iv, 15 mg/kg, mouse plasma; CBT succinate in 50% PEG300 formulation, 15 mg/kg IV; time 2 h; read-out: CBT succinate concentration (individual mouse)
MEASURE_NAME: concentration at 2 h (ng/mL)

[
  {
    "COMPOUND": "CO[C@H]1C(=O)[C@]2(C)[C@@H](OC)C[C@H]3OC[C@@]3(OC(C)=O)[C@H]2[C@H](OC(=O)c2ccccc2)[C@]2(O)C[C@H](OC(=O)[C@H](OC(=O)CCC(=O)O)[C@@H](NC(=O)OC(C)(C)C)c3ccccc3)C(C)=C1C2(C)C [CBT succinate, cabazitaxel succinate]",
    "MEASURE_UNIT": "ng/mL",
    "VAL": 15
  }
]

* * *

# EXPERIMENTAL_DETAILS: In vivo bioconversion of CBT succinate in 50% PEG300 formulation, IV, mouse plasma by LC-MS/MS
# Design: species or system ICR male mice
# CONDITION: male, ICR; mouse plasma; CBT succinate in 50% PEG300 formulation, 15 mg/kg IV
# Method: The bioanalysis results are tabulated as Tables 1 to 3 below. The values of mean and standard deviation (SD) are calculated. BLOQ means “below the limit of quantification”, and N/A means “not available”. Normal saline used herein is 0.90% sodium chloride aqueous solution. C0: Initial concentration; • 3. […] AUC/D: AUC divided by dose; • 6.

[
  {
    "MOLECULE": "CO[C@H]1C(=O)[C@]2(C)[C@@H](OC)C[C@H]3OC[C@@]3(OC(C)=O)[C@H]2[C@H](OC(=O)c2ccccc2)[C@]2(O)C[C@H](OC(=O)[C@H](OC(=O)CCC(=O)O)[C@@H](NC(=O)OC(C)(C)C)c3ccccc3)C(C)=C1C2(C)C [CBT succinate, cabazitaxel succinate]",
    "MEASURE_UNIT": "min",
    "MRT": 9.6
  }
]

* * *

# EXPERIMENTAL_DETAILS: In vivo bioconversion of CBT succinate in 50% PEG300 formulation, IV, mouse plasma by LC-MS/MS
# Set-up: species or system ICR male mice
# CONDITION: male, ICR, mouse, plasma, iv, 15 mg/kg, mouse plasma; CBT succinate in 50% PEG300 formulation, 15 mg/kg IV; time 1 h

[
  {
    "COMPOUND": "CO[C@H]1C(=O)[C@]2(C)[C@@H](OC)C[C@H]3OC[C@@]3(OC(C)=O)[C@H]2[C@H](OC(=O)c2ccccc2)[C@]2(O)C[C@H](OC(=O)[C@H](OC(=O)CCC(=O)O)[C@@H](NC(=O)OC(C)(C)C)c3ccccc3)C(C)=C1C2(C)C [CBT succinate, cabazitaxel succinate]",
    "MEASURE_UNIT": "ng/mL",
    "concentration at 1 h": 50
  }
]

* * *

# EXPERIMENTAL_DETAILS: In vivo bioconversion of CBT succinate in 50% PEG300 formulation, IV, mouse plasma by LC-MS/MS
# Parameters: species or system ICR male mice
# CONDITION: male, ICR; mouse plasma; CBT succinate in 50% PEG300 formulation, 15 mg/kg IV; read-out: Vss of CBT Succinate
MEASURE_NAME: Vd (L/kg)

[
  {
    "COMPOUND": "CO[C@H]1C(=O)[C@]2(C)[C@@H](OC)C[C@H]3OC[C@@]3(OC(C)=O)[C@H]2[C@H](OC(=O)c2ccccc2)[C@]2(O)C[C@H](OC(=O)[C@H](OC(=O)CCC(=O)O)[C@@H](NC(=O)OC(C)(C)C)c3ccccc3)C(C)=C1C2(C)C [CBT succinate, cabazitaxel succinate]",
    "MEASURE_UNIT": "L/kg",
    "VAL": 1.38
  }
]
